- measurement-target: GSK3b (GST-full length GSK3b) (Homo sapiens (Human), UniProt P49841)
- Sequence (P49841 whole entry): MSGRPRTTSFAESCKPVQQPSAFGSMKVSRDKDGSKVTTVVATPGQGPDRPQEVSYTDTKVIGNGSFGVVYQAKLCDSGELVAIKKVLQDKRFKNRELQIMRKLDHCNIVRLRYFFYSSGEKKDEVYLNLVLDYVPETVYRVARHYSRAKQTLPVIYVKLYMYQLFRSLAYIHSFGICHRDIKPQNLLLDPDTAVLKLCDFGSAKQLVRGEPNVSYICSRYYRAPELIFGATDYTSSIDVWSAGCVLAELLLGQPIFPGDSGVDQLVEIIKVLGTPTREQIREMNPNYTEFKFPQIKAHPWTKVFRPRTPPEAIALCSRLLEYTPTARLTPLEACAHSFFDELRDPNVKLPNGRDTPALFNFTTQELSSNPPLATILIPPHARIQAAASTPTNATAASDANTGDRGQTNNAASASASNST
- procedure-details: GSK3b TR-FRET kinase assay
- Type: biochemical
- experimental-context: read-out: GSK3-B (TR-FRET 1 mM ATP); GMean; IC50; 1 mM ATP; geometric mean
pIC50: −log10 of the molar value.
measured-property: pIC50

Some compounds with recorded pIC50:
compound="CCC1(c2cccc(N(C)c3nccc(C)n3)c2)C2=C(CC(C)(C)CC2=O)Nc2n[nH]cc21 (stereo not drawn) [Compound 945328]" measurement_target="GSK3b (GST-full length GSK3b) (Homo sapiens (Human), UniProt P49841)" result="6.00 to 7.00"
compound="CCC1(c2cccc(-c3cc(OC)ncc3F)c2)C2=C(CC(C)(C)CC2=O)Nc2n[nH]cc21 (stereo not drawn)" measurement_target="GSK3b (GST-full length GSK3b) (Homo sapiens (Human), UniProt P49841)" result="5.30 to 6.00"

Item CC(C)(C)Cc1[nH]nc2c1C1(COc3ccccc31)C1=C(CC(C)(C)CC1=O)N2 (stereo not drawn) has what recorded pIC50?
6.00 to 7.00

###

- measurement-target: GSK3α (GST-full length GSK3α) (Homo sapiens (Human))
- procedure-details: GSK3α TR-FRET kinase assay
- Type: biochemical
- experimental-context: 1 nM GSK3α, 4 μM ATP, 30 minute preincubation, Table 16; read-out: GSK3-A TR-FRET BIOCHEMICAL (TR-FRET)
pIC50: −log10 of the molar value.
// values below are reported pIC50

Some compounds with recorded pIC50:
compound="CCC1(c2cccc(OC(C)C)c2)C2=C(CC(C)(C)CC2=O)Nc2[nH]nc(C(F)(F)F)c21 (stereo not shown)" result="≥ 7.00"
compound=CC[C@]1(c2cccc(-c3ccnc(C)c3)c2)C2=C(C[C@]3(CCOC3)NC2=O)Nc2n[nH]cc21 result="≥ 7.00"
compound=CC1(C)CC(=O)C2=C(C1)Nc1n[nH]cc1C21Cc2ccccc2C1 result="≥ 7.00"
compound="CCC1(c2cccc(-c3c(C)cncc3C)c2)C2=C(CC(C)(C)CC2=O)Nc2n[nH]cc21 (stereo not shown)" result="≥ 7.00"
compound=CC1(C)CC(=O)C2=C(C1)Nc1n[nH]cc1C21CCN(S(=O)(=O)c2cc(Cl)ccc2Cl)CC1 result="≥ 7.00"
compound=CC[C@]1(c2cccc(-c3ccncc3O)c2)C2=C(CC(C)(C)CC2=O)Nc2n[nH]cc21 result="≥ 7.00"

Item Cc1[nH]nc2c1C1(CCOCC1)C1=C(CC(C)(C)C(F)C1=O)N2 (stereo not shown) has what recorded pIC50?
6.00 to 7.00

###

- measurement-target: GSK3α (GST-full length GSK3α) (Homo sapiens (Human), UniProt P49840)
- Sequence (P49840 whole entry): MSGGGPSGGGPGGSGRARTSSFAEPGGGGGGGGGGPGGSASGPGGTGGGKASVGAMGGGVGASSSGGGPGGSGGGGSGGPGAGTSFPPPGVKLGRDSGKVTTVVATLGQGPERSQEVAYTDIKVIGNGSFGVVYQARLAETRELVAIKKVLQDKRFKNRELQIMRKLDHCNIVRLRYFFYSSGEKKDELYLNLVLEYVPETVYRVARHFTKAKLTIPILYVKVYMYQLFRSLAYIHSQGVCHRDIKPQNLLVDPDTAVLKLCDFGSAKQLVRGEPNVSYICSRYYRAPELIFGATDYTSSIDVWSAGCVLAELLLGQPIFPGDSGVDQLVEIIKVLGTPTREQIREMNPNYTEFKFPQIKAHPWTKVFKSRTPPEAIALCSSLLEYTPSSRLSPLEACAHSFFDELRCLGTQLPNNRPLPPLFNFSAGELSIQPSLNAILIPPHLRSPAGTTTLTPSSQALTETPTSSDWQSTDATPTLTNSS
- procedure-details: GSK3α TR-FRET kinase assay
- Format: biochemical
- experimental-context: read-out: GSK3-A (TR-FRET 1 mM ATP); GMean; IC50; 1 mM ATP; geometric mean
pIC50: −log10 of the molar value.
// values below are reported pIC50

Some compounds with recorded pIC50:
compound="CC[C@]1(c2cccc(-c3ccncc3C(F)(F)F)c2)C2=C(CC(C)(C)CC2=O)Nc2n[nH]cc21 [Compound 943913]" measured_property=pIC50 result="≥ 7.00"
compound="CC[C@]1(c2cccc(C(C)C)c2)C2=C(CC(C)(C)NC2=O)Nc2n[nH]c(C)c21 [Compound 949649]" measured_property=pIC50 result="6.00 to 7.00"
compound="CCC1(c2cccc(N3CCCCC3)c2)C2=C(CC(C)(C)NC2=O)Nc2n[nH]c(C(F)(F)F)c21 (stereo not shown) [Compound 949183]" measured_property=pIC50 result="≥ 7.00"
compound="CC(C)(C)Cc1[nH]nc2c1C1(CN(C(=O)OCc3ccccc3)C1)C1=C(CC(C)(C)CC1=O)N2 [Compound 90330]" measured_property=pIC50 result="< 5.30"
compound="CC1(C)CC(=O)C2=C(C1)Nc1n[nH]c(C3CC(F)(F)C3)c1C21COc2ccccc21 (stereo not shown) [Compound 127429]" measured_property=pIC50 result="< 5.30"

Item CC[C@@]1(c2cccc(-c3cnc(C)n3C)c2)C2=C(CC(C)(C)CC2=O)Nc2n[nH]cc21 [Compound 945613] has what recorded pIC50?
6.00 to 7.00

And the next one, CCC1(c2cccc(Oc3ncccn3)c2)C2=C(CC(C)(C)CC2=O)Nc2n[nH]cc21 (stereo not shown) [Compound 947808] ?
≥ 7.00

And the next one, CCC1(c2cccc(-c3cc(C)ncc3F)c2)C2=C(CC(C)(C)CC2=O)Nc2n[nH]cc21 (stereo not shown) [Compound 927346] ?
≥ 7.00

And the next one, CCC1(c2cccc(N(C)c3nccc(C)n3)c2)C2=C(CC(C)(C)CC2=O)Nc2n[nH]cc21 (stereo not shown) [Compound 945328] ?
≥ 7.00

And the next one, CC[C@@]1(c2cccc(-c3ccncc3F)c2)C2=C(CC(C)(C)NC2=O)Nc2n[nH]c(Cl)c21 [Compound 949757] ?
6.00 to 7.00

And the next one, CC[C@]1(c2cccc(-c3ccnc(C)c3OC)c2)C2=C(CC(C)(C)CC2=O)Nc2n[nH]cc21 [Compound 945997] ?
6.00 to 7.00
